- Method: from Langlois, M.; Dubost, J.; Audry, E.; Dallet, P.; Colleter, J. (1989). Simultaneous determination of physicochemical constants usable in QSAR in a series of alpha-adrenergic amines. Analusis : chimie …
Below, each entry is listed alongside its reported logP.
Please reply with the value in numeric form only.

# get_value(readout='logP', item= c1ccc(C(CC2NCCc3c2[nH]c2ccccc32)c2ccccc2)cc1 (stereo not drawn) )
3.47

Also, O=[N+]([O-])c1cccc(C2NCCc3c2[nH]c2ccccc32)c1 (stereo not drawn) please.
3.04

Also, Clc1ccc(C2NCCc3c2[nH]c2ccccc32)c(Cl)c1 (stereo not drawn) please.
3.58
